Biological target: T1, sIL-6R (soluble IL-6 receptor; SBH Sciences) (human, UniProt P08887 20-365)
T1 construct: also called human IL-6R
T1 sequence: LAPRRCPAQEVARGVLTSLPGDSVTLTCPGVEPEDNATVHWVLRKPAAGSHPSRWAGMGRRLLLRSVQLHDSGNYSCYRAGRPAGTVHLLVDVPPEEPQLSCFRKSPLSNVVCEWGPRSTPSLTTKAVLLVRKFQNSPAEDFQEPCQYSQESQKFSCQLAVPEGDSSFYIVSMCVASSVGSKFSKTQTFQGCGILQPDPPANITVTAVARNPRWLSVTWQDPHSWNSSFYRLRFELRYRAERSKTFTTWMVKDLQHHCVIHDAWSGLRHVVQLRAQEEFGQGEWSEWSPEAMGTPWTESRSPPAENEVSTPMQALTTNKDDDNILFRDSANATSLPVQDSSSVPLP
Assay: SPR (BIAcore 3000), antibody on chip, sIL-6R analyte, pH 7.4

binder	kon
231# (antibody, human IgG1, kappa, V domains shown, also called Sample # 231) VH: QVQLQESGPGLVRPSQTLSLTCTVSGYSITSDHAWSWVRQPPGRGLEWIGYISYSGITTYNPSLKSRVTMLRDTSKNQFSLRLSSVTAADTAVYYCARTLARMTAIDFWGQGSLVTVSS VL: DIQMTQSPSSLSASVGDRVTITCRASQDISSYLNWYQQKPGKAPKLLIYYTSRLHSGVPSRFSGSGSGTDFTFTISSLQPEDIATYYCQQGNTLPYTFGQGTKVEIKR	132000 M⁻¹ s⁻¹
